target: Beta-3 adrenergic receptor (Homo sapiens, UniProt P13945); assay: Stimulation of cAMP levels in CHO cells expressing the recombinant human beta-3 adrenergic receptor
Sequence (P13945 whole entry): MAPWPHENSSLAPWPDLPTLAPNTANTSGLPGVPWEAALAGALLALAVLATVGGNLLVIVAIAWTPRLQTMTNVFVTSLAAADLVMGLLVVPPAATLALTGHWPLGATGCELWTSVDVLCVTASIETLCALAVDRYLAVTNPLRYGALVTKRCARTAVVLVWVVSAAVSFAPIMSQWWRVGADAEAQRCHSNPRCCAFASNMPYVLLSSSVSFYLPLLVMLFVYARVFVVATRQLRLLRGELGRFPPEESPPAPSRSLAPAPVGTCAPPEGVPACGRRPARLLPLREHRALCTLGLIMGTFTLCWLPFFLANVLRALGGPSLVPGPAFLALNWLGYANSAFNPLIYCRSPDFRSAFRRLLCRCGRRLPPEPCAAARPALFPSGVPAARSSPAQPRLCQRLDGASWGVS
EC50 less than 10 nM is y; EC50 greater than or equal to 10 nM is n.

-- ask Is it true that EC50 reported for O=S(=O)(Nc1ccc(CCNC[C@H](O)c2cccnc2)cc1)c1ccc(-c2noc(COc3ccc(F)c(F)c3)n2)cc1 is less than 10 nM?
-- reply y

-- ask Is it true that EC50 reported for O=S(=O)(Nc1ccc(CCNC[C@H](O)c2cccnc2)cc1)c1ccc(-c2nc(COc3ccc(F)c(F)c3)no2)cc1 is less than 10 nM?
-- reply n

-- ask Is it true that EC50 reported for O=S(=O)(Nc1ccc(CCNC[C@H](O)c2cccnc2)cc1)c1ccc(-c2noc(COc3ccc(F)cc3)n2)cc1 is less than 10 nM?
-- reply y

-- ask Is it true that EC50 reported for O=S(=O)(Nc1ccc(CCNC[C@H](O)c2cccnc2)cc1)c1ccc(-c2noc(COc3ccc(OC(F)(F)F)cc3)n2)cc1 is less than 10 nM?
-- reply y

-- ask Is it true that EC50 reported for NC(c1ccc(F)cc1)c1nc(-c2ccc(S(=O)(=O)Nc3ccc(CCNC[C@H](O)c4cccnc4)cc3)cc2)no1 (stereo not given in full) is less than 10 nM?
-- reply y

-- ask Is it true that EC50 reported for O=S(=O)(Nc1ccc(CCNC[C@H](O)c2cccnc2)cc1)c1ccc(-c2noc(Cc3cccc(OC(F)(F)F)c3)n2)cc1 is less than 10 nM?
-- reply n

-- ask Is it true that EC50 reported for O=S(=O)(Nc1ccc(CCNC[C@H](O)c2cccnc2)cc1)c1ccc(-c2noc(Cc3ccc(OC(F)(F)F)cc3)n2)cc1 is less than 10 nM?
-- reply y

-- ask Is it true that EC50 reported for CS(=O)(=O)NC(c1ccc(F)cc1)c1nc(-c2ccc(S(=O)(=O)Nc3ccc(CCNC[C@H](O)c4cccnc4)cc3)cc2)no1 (stereo not given in full) is less than 10 nM?
-- reply n

-- ask Is it true that EC50 reported for O=S(=O)(Nc1ccc(CCNC[C@H](O)c2cccnc2)cc1)c1ccc(-c2noc(Cc3ccc(C(F)(F)F)cc3)n2)cc1 is less than 10 nM?
-- reply n

-- ask Is it true that EC50 reported for O=S(=O)(Nc1ccc(CCNC[C@H](O)c2cccnc2)cc1)c1ccc(-c2noc(Cc3ccc4ccccc4c3)n2)cc1 is less than 10 nM?
-- reply y

-- ask Is it true that EC50 reported for COc1ccc(OCc2nc(-c3ccc(S(=O)(=O)Nc4ccc(CCNC[C@H](O)c5cccnc5)cc4)cc3)no2)cc1 is less than 10 nM?
-- reply y

-- ask Is it true that EC50 reported for CNC(=O)NC(c1ccc(F)cc1)c1nc(-c2ccc(S(=O)(=O)Nc3ccc(CCNC[C@H](O)c4cccnc4)cc3)cc2)no1 (stereo not given in full) is less than 10 nM?
-- reply y

-- ask Is it true that EC50 reported for CC(=O)Nc1ccc(Cc2nc(-c3ccc(S(=O)(=O)Nc4ccc(CCNC[C@H](O)c5cccnc5)cc4)cc3)no2)cc1 is less than 10 nM?
-- reply n

-- ask Is it true that EC50 reported for O=S(=O)(Nc1ccc(CCNC[C@H](O)c2cccnc2)cc1)c1ccc(-c2nc(Cc3ccc(F)cc3)no2)cc1 is less than 10 nM?
-- reply n

All figures here come from ChEMBL document CHEMBL1133209.
